Assay: Preliminary cytotoxicity assay (WST-8 reduction, viability and morphological observations)
Assay type: cell-based, human
Conditions: human, Viability (%)
Metric Name: viability at 24 h, 60 µM (%)
// note: answer is a bare numeric in %

Prompt: So what does the record say about viability at 24 h, 60 µM for C[N+](C)(C)[C@@H](Cc1c[nH]c(=S)[nH]1)C(=O)[O-] [L-Ergothioneine] ?
Completion: 100

----------
Experiment: Preliminary cytotoxicity assay (WST-8 reduction, viability and morphological observations)
Format: cell-based, human
Details: human, normal human epidermal keratinocytes (NHEK), 540 μM, 24 hours of incubation; read-out: Viability Mean (%)
Metric Name: viability at 24 h, 540 µM (%)
Expressed in %, but write only the number.

Prompt: Consider the compound shown here: Oc1ccc(C=Cc2cc(O)cc(O)c2)cc1 [Resveratrol] What is its recorded viability at 24 h, 540 µM?
Completion: 8
